Reported EC50 by item:
- TGT: SARS-CoV-2 receptor binding domain (RBD), wild type (SARS-CoV-2, UniProt P0DTC2 319-539)
- PROTOCOL_DETAILS: ELISA, RBD coated on the plate, antibody titrated
PARAMETER_MEASURED: EC50 (µg/mL)

BINDER	PARAMETER_MEASURED	UNIT_ANNOTATION	READOUT_VALUE
C585 (antibody, V domains shown) VH: QVQLQESGPGLVKPSETLSLTCTVSGDSISSYFWSWIRQPPGRGLEWIGYIHDSVNTNYNPSLKSRVTISVDTSKSQFSLRLSSVTAADTAVYYCARCAWLRGSFDYWGQGTLVTVSS VL: NFMLTQPHSVSESPGKTVTISCTGSSGSIASNYVQWYQQRPGSAPTTVIYEDNQRPSGVPDRFSGSIDSSSNSASLTISGLKTEDEADYYCQSYDFSSHYVFGTGTKVTVL	EC50	µg/mL	0.011
C584 (antibody, V domains shown) VH: EVQLVESGGGLVQPGGSLRLSCAASGFTFSTYDMHWVRQATGKGLEWVSAIGTAGDKYYPGSVKGRFTISRENAKNSLYLQMNSLRAGDTAVYYCVRAGYSSGWPLYWYFDLWGRGTLVTVSS VL: DIQMTQSPSSLSASVGDRVTITCRASQSISSYLNWYQQKPGKAPKFLIYAASSLQSGVPSRFSGSGSGTDFTLTISNLQPEDFATYYCQQSYRTPPEFTFGPGTKVDIK	EC50	µg/mL	0.0105
C587 (antibody, V domains shown) VH: QVQLVQSGAEVKKSGSSVKVSCKASGGSFSSYAISWVRQAPGQGLEWMGGIIPIFGTAKYAQKFQGRVTITADESTSTAYMELSSLRSEDTAVYYCASRWEQLNGGSWHYFDYWGQGTLVTVSS VL: QSALTQPASVSGSPGQSITISCTGTRSDVGRNNLVSWYQHHPGKAPKVMIYEGSKRPSGVSTRFSGSKSGNTASLTISGLQAEDEADYYCCSYAGSSTFEGVFGGGTKLTVL	EC50	µg/mL	0.00439
